- protocol-text: AUC last in 16 hrs fasted ICR mouse at 2 mg/kg, iv measured upto 8 hrs by LC-MS/MS analysis
- Assay type: ADME, organism-based
- setup-conditions: in vivo
endpoint-name: AUC(0-t) at 8 h

QUERY: // fetch AUC(0-t) at 8 h given entry "COc1ccccc1Nc1c(N[C@H]2CC[C@H](Oc3ccc([N+](=O)[O-])cc3)CC2)c(=O)c1=O"
RESULT: 2370 ng·h/mL

###

- protocol-text: Clearance in 16 hrs fasted ICR mouse at 2 mg/kg, iv measured upto 8 hrs by LC-MS/MS analysis
- Assay type: ADME, organism-based
- setup-conditions: in vivo
endpoint-name: clearance (mL/min/kg)
Only the number, expressed in mL/min/kg, is required.

QUERY: Please give measured clearance of the following entry: "COc1ccccc1Nc1c(N[C@H]2CC[C@H](Oc3ccc([N+](=O)[O-])cc3)CC2)c(=O)c1=O"
RESULT: 13.3

###

- measured-on: Sterol regulatory element-binding protein 1 (Homo sapiens) (UniProt P36956)
- Sequence (P36956 1-490 limits assumed): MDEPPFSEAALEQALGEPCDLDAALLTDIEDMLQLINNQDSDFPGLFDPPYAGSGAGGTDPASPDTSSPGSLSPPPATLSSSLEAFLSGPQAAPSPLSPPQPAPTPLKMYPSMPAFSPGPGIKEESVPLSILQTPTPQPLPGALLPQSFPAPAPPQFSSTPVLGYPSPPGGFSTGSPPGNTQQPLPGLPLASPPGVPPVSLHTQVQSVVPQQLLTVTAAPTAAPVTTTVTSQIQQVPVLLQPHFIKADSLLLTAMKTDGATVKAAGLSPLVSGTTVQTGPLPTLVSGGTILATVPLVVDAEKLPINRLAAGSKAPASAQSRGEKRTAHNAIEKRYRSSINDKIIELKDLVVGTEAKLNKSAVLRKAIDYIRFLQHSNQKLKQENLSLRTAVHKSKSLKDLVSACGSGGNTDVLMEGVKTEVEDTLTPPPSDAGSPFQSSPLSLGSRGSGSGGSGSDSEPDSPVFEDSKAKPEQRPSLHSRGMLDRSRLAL
- protocol-text: Inhibition of SREBP-1c transcriptional activity in human HepG2 cells expressing LXRalpha/RXRalpha assessed as reduction in SRE-luciferase level at 10 uM pretreated with compound for 30 mins followed by T0901317 addition and measured after 12 hrs by Dual-Glo luciferase assay relative to control
- Format: cell-based
- setup-conditions: time 12.5 hrs
Assign 1 whenever inhibition does not fall below 40%; assign -1 whenever it does.

These recorded examples may help you get a feel for the data.
QUERY: Is inhibition at least 40%? Consider "CC(C)(C)c1ccc(Nc2c(N[C@H]3CC[C@H](Oc4ccc(S(C)(=O)=O)cc4)CC3)c(=O)c2=O)cc1"
RESULT: -1

QUERY: Is the recorded value of inhibition equal to or greater than 40% for this compound? "COc1cccc(Nc2c(N[C@H]3CC[C@H](Oc4ccc(C(F)(F)F)cc4)CC3)c(=O)c2=O)c1"
RESULT: 1

QUERY: Determine whether measured inhibition meets or exceeds 40% for "CC(C)(C)c1ccc(Nc2c(N[C@H]3CC[C@H](Oc4ccc(C(F)(F)F)cc4)CC3)c(=O)c2=O)cc1"
RESULT: -1

Others:
QUERY: Determine whether measured inhibition meets or exceeds 40% for "COc1cccc(Nc2c(N[C@H]3CC[C@H](Oc4ccc(C#N)cc4)CC3)c(=O)c2=O)c1"
RESULT: 1

QUERY: Determine whether this compound has inhibition no lower than 40%: "CC(C)(C)c1ccc(Nc2c(N[C@H]3CC[C@H](Oc4ccc(C#N)cc4)CC3)c(=O)c2=O)cc1"
RESULT: -1

QUERY: Please check the record "O=c1c(Nc2ccccc2)c(N[C@H]2CC[C@H](Oc3ccc([N+](=O)[O-])cc3)CC2)c1=O" and state if its inhibition is at or above 40%.
RESULT: 1

QUERY: Answer whether inhibition of "COc1cccc(Nc2c(N[C@H]3CC[C@H](Oc4ccc([N+](=O)[O-])cc4)CC3)c(=O)c2=O)c1" is greater than or equal to 40%.
RESULT: -1
